Answer each item with its documented pIC50.
Test system: IL-6 production in whole blood
Test: Inhibition of IL-6 production in LPS-stimulated whole blood ("WB")
Assay type: cell-based, human
Settings: Homo sapiens
Procedure: Inhibitors were serially diluted in DMSO from a 20 mM stock. At least 6 serial dilutions were prepared. Then 4× inhibitor stocks were prepared by adding 4 μl of an inhibitor dilution to 1 ml of RPMI1640 medium/10% fetal bovine serum. The 4× inhibitor stocks contained inhibitor at concentrations of 80 μM, 32 μM, 12.8 μM, 5.12 μM, 2.048 μM, 0.819 μM, 0.328 μM, 0.131 μM, 0.052 μM, 0.021 μM etc. The 4× inhibitor stocks were pre-warmed at 37° C. until use. […]
pIC50: −log10 of the molar value.

For the compound shown here, O=C1NCN2N=C(Sc3ccc(F)cc3Cl)C=CC2=C1c1c(Cl)cccc1Cl , give the reported pIC50.
≥ 6.60

And NC(=O)N(c1cccc(-c2ccc(F)cc2)n1)c1c(F)cccc1F ?
≤ 6.30

Follow-up entry: O=C1NCN2N=C(Sc3ccc(F)cc3)C=CC2=C1c1cc2c(cc1Cl)OCO2
6.30 to 6.60

Would you mind doing Cc1ccc(Sc2ccc3c(-c4c(Cl)cccc4Cl)c(=O)ncn3n2)c(C)c1 as well?
≤ 6.30

Follow-up entry: Cc1cc(F)ccc1-c1cccc(C(C(N)=O)c2c(Cl)cc(N)cc2Cl)n1 (centres unmarked)
≤ 6.30

Here is the next compound: CC(=O)Nc1ccc(C2=C3C=CC(Sc4ccc(F)cc4)=NN3CNC2=O)c(Cl)c1
≤ 6.30

Record: Nc1cc(F)ccc1SC1=NN2CNC(=O)C(c3c(Cl)cccc3Cl)=C2C=C1
≥ 6.60

Then this compound: O=C1NCN2N=C(Sc3ccccc3Br)C=CC2=C1c1c(Cl)cccc1Cl
6.30 to 6.60

Repeat with NC(=O)C(c1cccc(-c2ccc(Cl)cc2Cl)n1)c1c(Cl)cccc1Cl (centres unmarked)
≤ 6.30

And for O=c1ncn2nc(Sc3ccc(F)cc3)ccc2c1-c1c(Cl)cccc1Cl ?
≤ 6.30

Moving on to Cc1ccc(SC2=NN3CNC(=O)C(c4c(Cl)cccc4Cl)=C3C=C2)c(C)c1
≤ 6.30

Subsequent entry: Cc1cccc(-c2cccc(C(C(N)=O)c3c(Cl)cccc3Cl)n2)c1 (centres unmarked)
≤ 6.30

Entry O=C1NCN2N=C(Sc3ccccc3CO)C=CC2=C1c1c(Cl)cccc1Cl please
≥ 6.60

Check Cc1cc(Cl)ccc1SC1=NN2CNC(=O)C(c3c(Cl)cccc3Cl)=C2C=C1 too.
6.30 to 6.60

* * *

For each of the compounds below, state its pIC50.
Tested on: IL-6 production in whole blood
Test: Inhibition of IL-6 production in LPS-stimulated whole blood ("WB")
Assay type: cell-based, human
Settings: Homo sapiens
pIC50: −log10 of the molar value.

Data request, read-out pIC50, for NCc1ccccc1SC1=NN2CNC(=O)C(c3c(Cl)cccc3Cl)=C2C=C1 [Compound 118]
≤ 6.30

Next up: COC(=O)CCc1ccc(SC2=NN3CNC(=O)C(c4c(Cl)cccc4Cl)=C3C=C2)cc1 [Compound 120]
≤ 6.30

Again, but for Cc1ccccc1-c1cccc(N(C(N)=O)c2c(F)cccc2F)n1 [Compound 403]
6.30 to 6.60

Then this compound: Cc1ccccc1-c1cccc(C(C(N)=O)c2c(F)cccc2Cl)n1 (stereo not drawn) [Compound 335]
≤ 6.30

How about this compound: CNCc1ccccc1-c1cccc(C(C(N)=O)c2c(Cl)cccc2Cl)n1 (stereo not drawn) [Compound 303]
≤ 6.30

Repeat with COc1cc(Cl)c(C2=C3C=CC(Sc4ccc(F)cc4)=NN3CNC2=O)cc1O [Compound 135]
≤ 6.30

What do you get for N#Cc1ccccc1SC1=NN2CNC(=O)C(c3c(Cl)cccc3Cl)=C2C=C1 [Compound 116] ?
≤ 6.30

Cool, now Nc1ccc(F)cc1SC1=NN2CNC(=O)C(c3c(Cl)cccc3Cl)=C2C=C1 [Compound 122]
≤ 6.30

O=C1C(c2c(Cl)cccc2Cl)=C2C=CC(Sc3ccc(F)cc3)=NN2CN1CO [Compound 138] ?
≥ 6.60

And for O=C1NCN2N=C(Sc3ccccc3CNc3ncc[nH]3)C=CC2=C1c1c(Cl)cccc1Cl [Compound 123] ?
≤ 6.30

Let us now turn to O=C1NCN2N=C(Sc3ccccc3O)C=CC2=C1c1c(Cl)cccc1Cl [Compound 114]
≥ 6.60

Try O=c1ncn2nc(Sc3ccccc3O)ccc2c1-c1c(Cl)cccc1Cl [Compound 33] next.
≤ 6.30

Also need COc1ccc(-c2c(=O)ncn3nc(Sc4ccc(F)cc4)ccc23)c(Cl)c1OC [Compound 36] , thanks.
≤ 6.30

Field entry: Cc1ccccc1-c1cccc(C(C(N)=O)c2c(Cl)cccc2Cl)n1 (stereo not drawn) [Compound 305]
≤ 6.30

What would you report for Nc1ccc(C2=C3C=CC(Sc4ccc(F)cc4)=NN3CNC2=O)c(Cl)c1 [Compound 137] ?
6.30 to 6.60

# repeat for NC(=O)C(c1cccc(-c2ccc(F)cc2)n1)c1c(F)cccc1Cl (stereo not drawn) [Compound 329]
≤ 6.30

What about this compound? COc1ccc(C2=C3C=CC(Sc4ccc(F)cc4)=NN3CNC2=O)c(Cl)c1 [Compound 139]
≤ 6.30

Another compound to check: NC(=O)C(c1cccc(-c2ccccc2)n1)c1cc(Cl)ccc1Cl (stereo not drawn) [Compound 349]
≤ 6.30

* * *

Biological target: activated p38 (Homo sapiens, UniProt Q16539)
Sequence (Q16539 whole entry): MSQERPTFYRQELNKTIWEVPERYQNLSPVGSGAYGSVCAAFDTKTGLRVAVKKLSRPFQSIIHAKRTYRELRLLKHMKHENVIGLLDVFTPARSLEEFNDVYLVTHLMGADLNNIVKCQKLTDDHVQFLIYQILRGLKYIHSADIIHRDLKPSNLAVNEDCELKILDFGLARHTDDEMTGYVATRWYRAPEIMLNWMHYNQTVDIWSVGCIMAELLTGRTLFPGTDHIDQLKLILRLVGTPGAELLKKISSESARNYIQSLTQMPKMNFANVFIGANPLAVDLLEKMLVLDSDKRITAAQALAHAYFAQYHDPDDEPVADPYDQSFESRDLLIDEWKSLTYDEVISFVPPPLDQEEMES
Experiment: Inhibition of phosphorylation of EGF receptor peptide ("kinase")
Format: biochemical
Details: inhibition of phosphorylation of EGF receptor peptide by activated p38
Could you please report measured IC50 for the items listed next?

So what does the record say about IC50 for NC(=O)C(c1cccc(-c2ccc(F)c(Cl)c2)n1)c1c(F)cccc1Cl (stereo not drawn) [Compound 333] ?
100 to 1000 nM

Entry to check: COc1ccccc1-c1cccc(C(C(N)=O)c2c(F)cccc2Cl)n1 (stereo not drawn) [Compound 345]
≥ 1000 nM

// next record Cc1cc(F)ccc1-c1cccc(N(C(N)=O)c2c(Cl)cccc2Cl)n1 [Compound 409]
≤ 100 nM

Check Cc1cc(Cl)ccc1SC1=NN2CNC(=O)C(c3c(Cl)cccc3Cl)=C2C=C1 [Compound 106] too.
≤ 100 nM

Same lookup for CN(C)/C=N\c1ccc(C2=C3C=CC(Sc4ccc(F)cc4Cl)=NN3CNC2=O)c(Cl)c1 [Compound 140] , please.
≤ 100 nM

Then Cc1ccccc1-c1cccc(N(C(N)=O)c2c(C)cccc2C)n1 [Compound 405] ?
≤ 100 nM

Now try CN(C)C(=O)c1ccccc1Sc1ccc2c(-c3c(Cl)cccc3Cl)c(=O)ncn2n1 [Compound 31] .
≥ 1000 nM

Next up: Cc1ccc(Sc2ccc(C(C(N)=O)c3ccc(Cl)cc3Cl)nn2)cc1 (stereo not drawn) [Compound 205]
≥ 1000 nM

Try this compound too: Nc1cc(F)c(F)cc1SC1=NN2CNC(=O)C(c3c(Cl)cccc3Cl)=C2C=C1 [Compound 119]
100 to 1000 nM

Please do the same for NC(=O)C(c1cccc(-c2ccccc2C(F)(F)F)n1)c1c(Cl)cccc1Cl (stereo not drawn) [Compound 374] as well.
100 to 1000 nM

Please give the result for NC(=O)C(c1cccc(-c2ccc(Cl)cc2)n1)c1c(F)cccc1Cl (stereo not drawn) [Compound 330] too.
≥ 1000 nM

Another compound: COc1ccc(C2=C3C=CC(Sc4ccc(F)cc4)=NN3CNC2=O)c(Cl)c1OC [Compound 121]
≤ 100 nM

What about this compound? Cc1ccccc1-c1cccc(C(C(N)=O)c2c(Cl)cccc2Cl)n1 (stereo not drawn) [Compound 305]
≤ 100 nM

What about O=c1ncn2nc(Sc3cccc(Cl)c3)ccc2c1-c1c(Cl)cccc1Cl [Compound 25] ?
100 to 1000 nM

And the next one, NC(=O)C(c1cccc(-c2ccc(Cl)s2)n1)c1c(F)cccc1Cl (stereo not drawn) [Compound 347] ?
≥ 1000 nM

What do you have for Cc1c(Sc2ccccc2)nn2cnc(=O)c(-c3c(Cl)cccc3Cl)c2c1C [Compound 13] ?
≥ 1000 nM

What do you have for Cc1cc(F)ccc1-c1cccc(C(C(N)=O)c2c(Cl)cccc2Cl)n1 (stereo not drawn) [Compound 363] ?
≤ 100 nM

Continue with O=C(CN1CCOCC1)Nc1ccc(-c2c(=O)ncn3nc(Sc4ccc(F)cc4)ccc23)c(Cl)c1 [Compound 52]
100 to 1000 nM

* * *

Give measured IC50 for each item. Keep answers brief.
Target: activated p38 (Homo sapiens, UniProt Q16539)
Assay: Inhibition of phosphorylation of EGF receptor peptide ("kinase")
Conditions: inhibition of phosphorylation of EGF receptor peptide by activated p38

Value lookup for IC50; key = COc1cc(Cl)c(C2=C3C=CC(Sc4ccc(F)cc4)=NN3CNC2=O)cc1OC
≤ 100 nM

How about NC(=O)C(c1cccc(-c2ccc3ccccc3c2)n1)c1c(Cl)cccc1Cl (stereo not drawn) ?
≥ 1000 nM

Further, for COc1ccc(C2=C3C=CC(Sc4ccc(F)cc4)=NN3CNC2=O)c(Cl)c1 ?
≤ 100 nM

Likewise for NC(=O)C(c1cccc(-c2cccc(C(F)(F)F)c2)n1)c1c(F)cccc1Cl (stereo not drawn) ?
100 to 1000 nM

Now try Cc1cc(F)ccc1-c1cccc(N(C(N)=O)c2cc3c(cc2Cl)OCO3)n1 .
≤ 100 nM

Cc1cccc(-c2cccc(C(C(N)=O)c3c(F)cccc3Cl)n2)c1 (stereo not drawn) , same question.
100 to 1000 nM

And Cc1ccccc1-c1cccc(C(C(N)=O)c2c(F)cccc2Cl)n1 (stereo not drawn) ?
100 to 1000 nM

Same again, this time with Cc1cccc(-c2cccc(C(C(N)=O)c3c(Cl)cccc3Cl)n2)c1C (stereo not drawn)
≤ 100 nM

Now give it for NC(=O)C(c1cccc(-c2cccs2)n1)c1c(F)cccc1Cl (stereo not drawn) too.
≥ 1000 nM
